Provide the reported Inhibition of each item.
Test system: Plasmodium falciparum
experimental-details: GSK_TCMDC: Inhibition of Plasmodium falciparum Dd2 in whole red blood cells, using parasite LDH activity as an index of growth. Test compounds present at 2uM
Assay type: functional
Form entry: enter the amount, then its unit.

Sample records with Inhibition:
| compound | property-measured | readout-value |
| --- | --- | --- |
| Nc1nc(N)c2c(ccc3c2ccn3Cc2cccc3ccccc23)n1 | Inhibition | 95% |
| NCCCNc1ccc(-c2ccc(NC(=O)Nc3cc(C(F)(F)F)ccc3F)cc2)cn1.O=C(O)C(F)(F)F | Inhibition | 66% |
| COc1ccc2ccc(OC)c(CNCCCCCCNCc3c(OC)ccc4ccc(OC)cc34)c2c1.CS(=O)(=O)O | Inhibition | 32% |
| CCN(CC)c1ccc(-c2nc3cc(Cl)cnc3[nH]2)cc1 | Inhibition | 85% |
| CC(C)N1CCN(c2ccc(OCCCCN3CCN(c4cccc(Cl)c4Cl)CC3)cc2Cl)CC1.Cl | Inhibition | 34% |
| O=C(O)CCSSc1cccc[n+]1[O-] | Inhibition | 0% |
| CCOc1ccc(Nc2cc(C)nc(Nc3ccc(OCC)cc3)n2)cc1 | Inhibition | 49% |
| Cl.Oc1ccc(-c2cc(COc3ccccc3C(F)(F)F)c(C3=CCNCC3)cc2COc2ccccc2C(F)(F)F)cc1 | Inhibition | 62% |

Would you be so kind as to report Inhibition for each listed record?
1. CN(C)Cc1cccc(-c2ccc(NC(=O)c3ccc4c(=O)n(CCN5CCCCC5)cnc4c3)cc2)c1
2. Cl.N#Cc1ccc2c(c1)CCN(CCC1CCC(NC(=O)c3cccc(-c4ccc(F)cc4)c3)CC1)CC2 (stereo not given)

Result:
67%
10%

====

Tested on: HepG2
experimental-details: GSK_TCMDC: Percent inhibition of human HepG2 cell line. Test compounds present at 10uM.
Assay type: functional
Provide the reported Inhibition of each item.
Give bare numbers, in %.

Sample records with Inhibition:
| smiles | endpoint-unit | Inhibition |
| --- | --- | --- |
| Fc1ccc2[nH]c(-c3ccc(-c4ccc(CN5CCC(CCN6CCCCC6)CC5)cc4)cc3)nc2c1.O=C(O)C(F)(F)F | % | 98 |
| CC(=O)N(C)c1cccc(C(=O)Nc2ccc(-c3cccc(-c4nc5cccc(C)c5[nH]4)c3)cc2)c1 | % | 86 |
| COc1c(C=NNc2nc(=Nc3ccccc3)[nH]c(=Nc3ccccc3)[nH]2)ccc(Br)c1O | % | 63 |

Would you be so kind as to report Inhibition for each listed record?
1. COc1ccc2[nH]ccc(=NN=Cc3ccccc3F)c2c1
2. Fc1ccc2[nH]c(-c3cccc(-c4cccc(CN5CCN(c6cnccn6)CC5)c4)c3)nc2c1.O=C(O)C(F)(F)F
3. O=C(Nc1ccc(OC2CCN(Cc3ccc(F)cc3)CC2)c(Cl)c1)c1ccc(F)cc1.O=C(O)C(F)(F)F

Result:
[23, 17, 37]

Would you be so kind as to report Inhibition for each listed record?
1. N#Cc1ccc(CN2CCCN(c3ccc(NC(=O)c4ccc(F)cc4)cc3)CC2)cc1.O=C(O)C(F)(F)F
2. CC(C)(C)c1nn(-c2ccccc2)c2[nH]c(=O)c(CNCc3ccc4c(c3)OCO4)cc12

Result:
1: 12; 2: 1

====

System: HepG2
experimental-details: GSK_TCMDC: Percent inhibition of human HepG2 cell line. Test compounds present at 10uM.
Type: functional
Classification field: enter true (1) for Inhibition values not below 9%, false (0) for values below it.

Some entries whose results are on file:
| compound | discrete-label |
| --- | --- |
| O=C(NC1CCCc2ccccc21)[C@@H]1CCCN1C(=O)c1ccc(O)c(-c2cccc([N+](=O)[O-])c2)c1 (stereo partly drawn) | false (0) |
| CCc1cccc(NC(=O)/C=C/c2ccc3c(c2)CN(C)CC3)c1 | false (0) |
| Cc1c(C(=O)N(C)C)sc2c1c(=O)n(Cc1ccccc1)c(=O)n2CC(=O)Nc1ccccc1F | true (1) |
| COc1ccccc1C1CCN(C2CCC(NC(=O)/C=C/c3cc(C(F)(F)F)cc(C(F)(F)F)c3)CC2)CC1 (stereo not drawn) | true (1) |
| CCCN(CCC)CCOc1ccc(C(O)(C#CC(O)(c2ccc(OCCN(CCC)CCC)cc2)c2cccc(Cl)c2)c2cccc(Cl)c2)cc1 (stereo not drawn) | true (1) |
| O=C(NCCCCN1CCC(c2ccc3ccccc3c2O)CC1)c1ccc(NC(=O)c2ccc(Cl)cc2)cc1 | true (1) |
| Cc1sc(NC(=O)Cc2cccc(C(F)(F)F)c2)nc1-c1cccc(Cl)c1 | true (1) |
| COc1cccc(OC)c1C(=O)Nc1cccc(-c2nn3ccccc3c2-c2ccnc(Nc3cccc(F)c3)n2)c1 | false (0) |
| C=Cc1ccc(-c2c(C)[nH]c(C)c(Br)c2=O)cc1 | false (0) |
| COc1ccc(-c2cccc(NC(=O)c3ccc(Cl)cc3)c2)cc1CN1CCC(O)CC1.O=C(O)C(F)(F)F | true (1) |

Ask: Check the entry "O=C(c1cc(-c2ccco2)n[nH]1)N1CCN(S(=O)(=O)c2ccc(Cl)cc2)CC1" : does Inhibition equal or exceed 9%?
Result: false (0)

Ask: Check the entry "O=C(C=Cc1ccc(Cl)c(Cl)c1)NCCCCCN1CCC(CCCNS(=O)(=O)c2ccc(Br)cc2)CC1" : does Inhibition equal or exceed 9%?
Result: true (1)

Ask: Check the entry "CN1CCC(NCc2ccc(-c3cnc(NCc4ccccc4)nc3)cc2)CC1.O=C(O)C(F)(F)F" : does Inhibition equal or exceed 9%?
Result: true (1)

Ask: Check the entry "Cc1cccc2nc(-c3ccc(-c4ccc(CNCCN5CCNCC5)cc4)s3)[nH]c12.O=C(O)C(F)(F)F" : does Inhibition equal or exceed 9%?
Result: true (1)

Ask: Check the entry "COc1ccc(CNCc2ccsc2)cc1-c1ccc(S(=O)(=O)NCCN2CCCC2)s1.O=C(O)C(F)(F)F" : does Inhibition equal or exceed 9%?
Result: true (1)

Ask: Check the entry "COc1cc2nc(NCCc3ccccc3)nc(NCCc3ccccc3)c2cc1OC" : does Inhibition equal or exceed 9%?
Result: true (1)

Ask: Check the entry "CS(=O)(=O)CCOCc1ccc(-c2ccc3ncnc(Nc4ccc(OCc5cccc(F)c5)c(Cl)c4)c3c2)o1" : does Inhibition equal or exceed 9%?
Result: false (0)
